molecular target: EGFR (Homo sapiens, UniProt P00533); test: EGFR kinase inhibitory assay; type: biochemical; details: EGFR IC50 ± SD, three replicates; concentrations 0.001-10 μM
Sequence (P00533 25-1210): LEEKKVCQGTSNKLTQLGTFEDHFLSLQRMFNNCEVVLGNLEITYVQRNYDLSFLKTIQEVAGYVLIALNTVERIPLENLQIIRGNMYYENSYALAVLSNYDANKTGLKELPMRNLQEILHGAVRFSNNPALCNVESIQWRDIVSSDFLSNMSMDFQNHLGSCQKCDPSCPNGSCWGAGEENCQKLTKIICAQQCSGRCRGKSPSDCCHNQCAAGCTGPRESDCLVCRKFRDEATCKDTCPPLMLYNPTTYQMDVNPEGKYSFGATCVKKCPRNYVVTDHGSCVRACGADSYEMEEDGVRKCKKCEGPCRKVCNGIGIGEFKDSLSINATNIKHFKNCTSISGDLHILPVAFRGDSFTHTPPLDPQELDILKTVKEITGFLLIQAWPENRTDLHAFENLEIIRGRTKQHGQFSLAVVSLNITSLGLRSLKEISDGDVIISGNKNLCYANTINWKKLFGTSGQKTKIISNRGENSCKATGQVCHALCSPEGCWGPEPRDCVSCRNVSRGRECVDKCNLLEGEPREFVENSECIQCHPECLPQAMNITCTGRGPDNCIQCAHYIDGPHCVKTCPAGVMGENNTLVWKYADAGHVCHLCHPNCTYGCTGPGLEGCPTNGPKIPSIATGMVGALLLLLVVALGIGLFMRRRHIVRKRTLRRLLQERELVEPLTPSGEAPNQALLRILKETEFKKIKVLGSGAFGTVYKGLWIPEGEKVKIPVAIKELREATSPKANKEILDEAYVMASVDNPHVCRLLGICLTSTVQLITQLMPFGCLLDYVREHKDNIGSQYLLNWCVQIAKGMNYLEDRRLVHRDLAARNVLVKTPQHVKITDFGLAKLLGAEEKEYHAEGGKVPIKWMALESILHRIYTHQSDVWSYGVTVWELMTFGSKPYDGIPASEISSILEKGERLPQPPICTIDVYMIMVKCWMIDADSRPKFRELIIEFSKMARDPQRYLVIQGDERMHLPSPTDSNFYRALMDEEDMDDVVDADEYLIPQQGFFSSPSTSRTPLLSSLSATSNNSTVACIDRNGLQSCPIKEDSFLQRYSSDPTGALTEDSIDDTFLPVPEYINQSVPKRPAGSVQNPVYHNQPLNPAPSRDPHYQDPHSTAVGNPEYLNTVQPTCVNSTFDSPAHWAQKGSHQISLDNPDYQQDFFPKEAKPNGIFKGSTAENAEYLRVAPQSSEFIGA
pIC50: −log10 of the molar value.
readoutType: pIC50

• CC1=C(C(=O)Nc2cccnc2)C(c2ccc3ccc4cccc5ccc2c3c45)NC(=S)N1 (stereo not drawn) [Compound 4c] = 7.02
• CC1=C(C(=O)Nc2ccccc2)C(c2ccc3ccc4cccc5ccc2c3c45)NC(=S)N1 (stereo not drawn) [Compound 4a] = 6.98
• CC1=C(C(=O)Nc2ccccn2)C(c2ccc3ccc4cccc5ccc2c3c45)NC(=S)N1 (stereo not drawn) [Compound 4b] = 7.11
